target: Torsin-1A (Homo sapiens) (UniProt O14656)
Sequence (O14656 whole entry, looked up): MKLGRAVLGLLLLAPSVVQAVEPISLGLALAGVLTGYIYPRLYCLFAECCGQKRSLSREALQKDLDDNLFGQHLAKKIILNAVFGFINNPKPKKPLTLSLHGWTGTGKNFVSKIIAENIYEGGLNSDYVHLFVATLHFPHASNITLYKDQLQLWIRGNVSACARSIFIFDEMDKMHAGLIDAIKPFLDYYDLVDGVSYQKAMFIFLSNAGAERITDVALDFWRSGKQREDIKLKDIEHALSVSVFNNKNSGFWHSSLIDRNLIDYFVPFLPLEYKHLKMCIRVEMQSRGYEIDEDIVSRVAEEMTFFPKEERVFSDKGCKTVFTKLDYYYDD
assay.notes: small-molecule binders of mutant TOR1A in lysate, primary screen, cell lysate, small-molecule microarray, COS7 lysate, 635/667 nm fluorescence (AID 1150);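 further: score pools 667 nm emission and signal to noise measuring lysate protein binding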
condition.details: COS7 hTOR1A mutant lysate, 635 nm fluorescence, higher = more signal
readout.label: composite z-score

>  <structure.notation>
C=CC[C@H](OC(=O)Nc1ccc(OC)cc1)c1ccc(O)c2ccccc12

>  <readout.label>
composite z-score

>  <numeric.result>
0.696

$$$$
>  <structure.notation>
Cc1ccc(F)cc1S(=O)(=O)N[C@@H]1CCN(Cc2ccc(OC(C)C)cc2)C1

>  <readout.label>
composite z-score

>  <numeric.result>
0.719

$$$$
>  <structure.notation>
C=C(CCCC)/C(=C/C[C@@H](OC(C)=O)c1ccc(CO)o1)c1cc(C(=O)OC)ccc1OC

>  <readout.label>
composite z-score

>  <numeric.result>
0.371

$$$$
>  <structure.notation>
CN(C)CCCNC(=O)[C@@H]1c2ccccc2C(=O)N(Cc2ccc(OC(F)(F)F)cc2)[C@H]1c1ccc(CO)cc1

>  <readout.label>
composite z-score

>  <numeric.result>
0.151

$$$$
>  <structure.notation>
COc1c(C)cc(-c2cc3c(c(Cc4ccccc4)n2)[Si](C(C)C)(C(C)C)OC3)cc1C

>  <readout.label>
composite z-score

>  <numeric.result>
-0.105

$$$$
